Test system: MALME-3M melanoma
method-notes: NCI-60 one-dose screen, 48 h (100 = growth as untreated, 0 = no growth, -100 = all killed)
stated-conditions: 10 µM
Compounds without any hit were thinned out: in the full panel of roughly 83,000, 20% have a hit.
quantity-measured: growth (%)

> print(dat)
                          structure.notation  endpoint.unit  numeric.readout
 1  CCCn1c(=O)c2[nH]c(-c3ccc(OCc4nc5ccc(F)cc5[nH]4)cc3)nc2n(CCC)c1=O              %            -52.2
 2  CNC(=O)c1cccc(N2CCc3c2ccc(NC(=O)Nc2ccc(N4CCN(C)CC4)c(C(F)(F)F)c2)c3F)c1              %            -96.3
 3  COc1ccccc1C(=O)NNC(=O)CSc1nc2c(c(=O)[nH]1)CCCC2              %             95.6
 4  Cc1ccc(-c2nc3ccc(C(=O)N=Nc4c(O)[nH]c5ccc(Cl)cc45)cc3[nH]2)cc1              %            -28.7
 5  O=C(NO)c1ccc(CNC(=O)[C@H]2Cc3c([nH]c4ccccc34)[C@H](c3ccc(Cl)cc3)N2)cc1              %             6.92
 6  CN1CCN(Cc2ccc(NC(=O)c3cncc(C#Cc4cnc5ccc(N[C@@H]6CCOC6)nn45)c3)cc2C(F)(F)F)CC1              %            -99.1
 7  COc1ccc(-c2ccc(/C=N/NC(=O)c3[nH]c4ccc(Br)cc4c3-c3ccccc3)o2)cc1              %               47
 8  COc1nccnc1NS(=O)(=O)c1ccc(NC2=C(Cl)C(=O)c3nc(C)ccc3C2=O)cc1              %              100
 9  N#Cc1c(-c2ccc(Cl)cc2)cc(-c2ccccc2)nc1OCc1ccccc1              %              102
10  COc1ccc(-c2cc(C(=O)N=Nc3c(O)[nH]c4ccccc34)c3ccccc3n2)cc1              %            -54.6
11  Nc1nnc(-c2c[nH]c3ncccc23)c(-c2c[nH]c3ccc(Br)cc23)n1              %             46.8
12  CN1CCN(c2ccc(Nc3nc(NCCCNC(=O)c4ccc(Cl)cc4)c4sccc4n3)cc2)CC1              %             72.6
13  COc1cccc(C(N)=Nc2ccc(OCCCCCCn3cncn3)cc2)c1              %             43.4
14  O=C(N/C(=C1/OCCN1Cc1ccccc1)[P+](c1ccccc1)(c1ccccc1)c1ccccc1)c1ccccc1              %            -60.6
15  O=S(=O)(c1ccc(Cl)cc1)c1nc(-c2ccccc2)oc1S(=O)(=O)c1ccc(Cl)cc1              %             91.8
16  COc1ccc(CN2[C@H](C(=O)NCc3ccc(C(=O)NO)cc3)Cc3c([nH]c4ccccc34)[C@H]2C2CC2)cc1              %             30.4
17  CSc1nc(-c2cccc(C)c2)c2cc(-c3ccccc3)n(C)c2n1              %             20.1
18  COc1ccc(CN2[C@@H](C(=O)NCc3ccc(C(=O)NO)cc3)Cc3c([nH]c4ccccc34)[C@@H]2C2CC2)cc1              %             12.8
